compounds and their reported pIC50
test system: SW-620; assay: In vitro cytotoxicity screening (sulphodamine B dye), SW-620; format: cell-based; details: Homo sapiens; SW-620 colon cancer cell line
pIC50: −log10 of the molar value.
PARAMETER MEASURED: pIC50

>  <COMPOUND>
C[C@H]1CC[C@@H]2[C@@H](OC(=O)C23CC(c2ccc(F)cc2)=NO3)[C@]2(C)C(=O)C=C[C@@]12O (stereo partly shown) [Compound -15]

>  <READOUT NUMBER>
5.44

$$$$
>  <COMPOUND>
C[C@H]1CC[C@@H]2[C@@H](OC(=O)C23CN3c2ccccc2[N+](=O)[O-])[C@]2(C)C(=O)C=C[C@]12O (stereo partly shown) [Compound -39]

>  <READOUT NUMBER>
4.48

$$$$
>  <COMPOUND>
C[C@H]1CC[C@@H]2[C@@H](OC(=O)C23CC(c2cccc([N+](=O)[O-])c2)=NO3)[C@]2(C)C(=O)C=C[C@@]12O (stereo partly shown) [Compound -11]

>  <READOUT NUMBER>
4.31

$$$$
>  <COMPOUND>
Cc1ccccc1N1CC12C(=O)O[C@@H]1[C@H]2CC[C@H](C)[C@]2(O)C=CC(=O)[C@@]12C (stereo partly shown) [Compound -43]

>  <READOUT NUMBER>
4.66

$$$$
>  <COMPOUND>
COc1ccccc1C1CC2(ON1c1ccccc1)C(=O)O[C@@H]1[C@H]2CC[C@H](C)[C@]2(O)C=CC(=O)[C@@]12C (stereo partly shown) [Compound -33]

>  <READOUT NUMBER>
4.28

$$$$
>  <COMPOUND>
C[C@H]1CC[C@@H]2[C@@H](OC(=O)C23CC(c2ccc(F)cc2)N(c2ccccc2)O3)[C@]2(C)C(=O)C=C[C@@]12O (stereo partly shown) [Compound -24]

>  <READOUT NUMBER>
5.14

$$$$
>  <COMPOUND>
COc1ccc(C2=NOC3(C2)C(=O)O[C@@H]2[C@H]3CC[C@H](C)[C@]3(O)C=CC(=O)[C@@]23C)cc1OC (stereo partly shown) [Compound -80]

>  <READOUT NUMBER>
4.07

$$$$
>  <COMPOUND>
C[C@H]1CC[C@@H]2[C@@H](OC(=O)C23CN3c2cccc(Cl)c2)[C@]2(C)C(=O)C=C[C@@]12O (stereo partly shown) [Compound -35]

>  <READOUT NUMBER>
4.32

$$$$
>  <COMPOUND>
C[C@H]1CC[C@@H]2[C@@H](OC(=O)C23CC(c2cccc(Cl)c2)N(c2ccccc2)O3)[C@]2(C)C(=O)C=C[C@@]12O (stereo partly shown) [Compound -31]

>  <READOUT NUMBER>
5.21

$$$$
>  <COMPOUND>
Cc1ccccc1C1CC2(ON1c1ccccc1)C(=O)O[C@@H]1[C@H]2CC[C@H](C)[C@]2(O)C=CC(=O)[C@@]12C (stereo partly shown) [Compound -19]

>  <READOUT NUMBER>
5.22

$$$$
>  <COMPOUND>
COc1ccc(C2CC3(ON2c2ccccc2)C(=O)O[C@@H]2[C@H]3CC[C@H](C)[C@]3(O)C=CC(=O)[C@@]23C)c(OC)c1 (stereo partly shown) [Compound -28]

>  <READOUT NUMBER>
5.12

$$$$
>  <COMPOUND>
C[C@H]1CC[C@@H]2[C@@H](OC(=O)C23CC(c2ccc(O)cc2)=NO3)[C@]2(C)C(=O)C=C[C@@]12O (stereo partly shown) [Compound -5]

>  <READOUT NUMBER>
4.05

$$$$
>  <COMPOUND>
C[C@H]1CC[C@@H]2[C@@H](OC(=O)C23CC(c2ccc(C#N)cc2)N(c2ccccc2)O3)[C@]2(C)C(=O)C=C[C@@]12O (stereo partly shown) [Compound -26]

>  <READOUT NUMBER>
5.32

$$$$
>  <COMPOUND>
COc1ccc(C2=NOC3(C2)C(=O)O[C@@H]2[C@H]3CC[C@H](C)[C@]3(O)C=CC(=O)[C@@]23C)cc1 (stereo partly shown) [Compound -1]

>  <READOUT NUMBER>
4.39

$$$$
>  <COMPOUND>
C[C@H]1CC[C@@H]2[C@@H](OC(=O)C23CC(c2cccs2)=NO3)[C@]2(C)C(=O)C=C[C@@]12O (stereo partly shown) [Compound -12]

>  <READOUT NUMBER>
4.47

$$$$
>  <COMPOUND>
C[C@H]1CC[C@@H]2[C@@H](OC(=O)C23CN3c2cccc([N+](=O)[O-])c2)[C@]2(C)C(=O)C=C[C@@]12O (stereo partly shown) [Compound -40]

>  <READOUT NUMBER>
4.21

$$$$
